cytotoxicity at 10 µM values, listed per item
Assay: Toxicity liver stage against HepG2, at 10uM
Type: cell-based
Set-up: test concentration 10 uM, cell line HepG2-A16-CD81EGFP
Conditions: human, HepG2-A16-CD81EGFP cells; read-out: INHIBITION
Field note: include the unit after the figure.

Recorded results for 3 compounds are shown here.
compound	cytotoxicity at 10 µM
Cc1nn(C)c(C)c1C1CCCN1Cc1nc2ccccc2o1 (centres undefined)	-20.6%
CCc1nc(N2CCC3(CCC(=O)N(CCCO)C3)CC2)no1	0.814%
COc1cccc(CNCc2cccnc2)c1	-1.13%

### Prompt State the recorded cytotoxicity at 10 µM for this entry: Cn1cc(CN2CCCC23CCN(C(=O)c2ccsc2)CC3)cn1
### Response 0.993%

### Prompt State the recorded cytotoxicity at 10 µM for this entry: c1ncc2c(n1)CN(Cc1nc(-c3ccsc3)no1)CC2
### Response -4.77%

### Prompt State the recorded cytotoxicity at 10 µM for this entry: Cc1noc(C)c1CSCc1csc(CS(C)(=O)=O)n1
### Response -17%

### Prompt State the recorded cytotoxicity at 10 µM for this entry: N#Cc1ccc(CN2CCCC2Cn2cccn2)cc1 (centres undefined)
### Response -2.96%

### Prompt State the recorded cytotoxicity at 10 µM for this entry: CNCc1cn(C2CCN(CCC(C)c3ccccc3)CC2)nn1 (centres undefined)
### Response 3.44%

### Prompt State the recorded cytotoxicity at 10 µM for this entry: Cc1cnn(C2CN(CC(=O)NCCc3ccccc3)C2)c1
### Response -0.956%

### Prompt State the recorded cytotoxicity at 10 µM for this entry: O=C(c1ccco1)N1CCOC2(COCCN(c3ncccn3)C2)C1 (centres undefined)
### Response -102%

### Prompt State the recorded cytotoxicity at 10 µM for this entry: Cc1cc(CN(C)C(=O)NCc2ccnc(OC3CCCC3)c2)no1
### Response 9.52%
